Catalogue of Ki readings, one per entry.
# ASSAY_TARGET: rat mGluR5 receptors (Rattus norvegicus)
# Construct: rat cerebro-cortical membrane preparation was used; from tissue; host or cells: rat cerebral cortex membranes
# Sequence (P31424 21-1203): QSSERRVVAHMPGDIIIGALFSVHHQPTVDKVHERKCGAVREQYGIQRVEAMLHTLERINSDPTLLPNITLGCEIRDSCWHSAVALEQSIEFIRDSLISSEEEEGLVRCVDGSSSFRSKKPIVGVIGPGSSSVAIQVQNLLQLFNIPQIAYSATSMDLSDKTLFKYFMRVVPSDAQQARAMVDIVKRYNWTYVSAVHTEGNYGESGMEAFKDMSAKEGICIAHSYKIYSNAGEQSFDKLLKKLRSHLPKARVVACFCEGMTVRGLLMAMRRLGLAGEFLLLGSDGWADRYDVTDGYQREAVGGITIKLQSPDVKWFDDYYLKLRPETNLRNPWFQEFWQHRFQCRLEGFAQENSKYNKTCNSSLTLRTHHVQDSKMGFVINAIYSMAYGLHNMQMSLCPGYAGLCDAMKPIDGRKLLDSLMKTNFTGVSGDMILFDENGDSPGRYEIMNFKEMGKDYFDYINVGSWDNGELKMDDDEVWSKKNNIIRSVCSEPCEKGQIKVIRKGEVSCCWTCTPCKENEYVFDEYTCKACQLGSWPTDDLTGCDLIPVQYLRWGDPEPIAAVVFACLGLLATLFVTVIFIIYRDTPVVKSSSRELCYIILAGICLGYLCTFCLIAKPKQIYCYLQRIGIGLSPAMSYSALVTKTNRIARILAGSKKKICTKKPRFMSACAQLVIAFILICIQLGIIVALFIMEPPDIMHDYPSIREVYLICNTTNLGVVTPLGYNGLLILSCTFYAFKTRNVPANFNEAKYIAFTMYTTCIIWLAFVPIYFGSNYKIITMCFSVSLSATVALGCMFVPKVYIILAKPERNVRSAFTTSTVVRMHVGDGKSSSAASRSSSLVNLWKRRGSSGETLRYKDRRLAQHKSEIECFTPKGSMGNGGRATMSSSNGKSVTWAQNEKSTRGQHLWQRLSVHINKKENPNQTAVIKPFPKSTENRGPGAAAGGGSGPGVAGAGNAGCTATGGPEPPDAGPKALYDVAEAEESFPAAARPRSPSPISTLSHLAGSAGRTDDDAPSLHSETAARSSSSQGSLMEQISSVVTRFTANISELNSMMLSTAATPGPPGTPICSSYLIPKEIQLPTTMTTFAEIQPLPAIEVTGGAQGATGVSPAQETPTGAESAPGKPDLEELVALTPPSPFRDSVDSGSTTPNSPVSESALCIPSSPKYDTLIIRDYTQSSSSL
# ASSAY_METHOD_TEXT: mGluR5 receptor binding test, rat cerebro-cortical membrane preparation, [3H]-M-MPEP
# CONDITION_DESCRIPTION: affinity for rat mGluR5 receptors; [3H]-M-MPEP (2 nM) radioligand
# Description: The mGluR5 receptor binding was determined according to the modified method of Gasparini et. al. (Bioorg. Med. Chem. Lett., 2000, 12, 407). Based on the high homology between the human and rat mGluR5 receptors, rat cerebro-cortical membrane preparation was used to determine the binding characteristics of the reference compounds and novel compounds to the rat mGluR5. […] The nonspecific binding was determined in the presence of 10 μM M-MPEP.

Inquiry: Can you share its Ki? I mean this compound: CCOC(=O)N1CCN(c2c(S(=O)(=O)c3ccc(Cl)cc3)cnc3ccc(C)cc23)CC1
Reply text: 0.2 to 0.5 µM

Inquiry: Same for COc1ccccc1N1CCN(c2c(S(=O)(=O)c3ccc(C)cc3)cnc3ccccc23)CC1
Reply text: > 0.5 µM

Inquiry: Can you handle COc1ccc2ncc(S(=O)(=O)c3ccccc3)c(N3CCOCC3)c2c1 next?
Reply text: 0.2 to 0.5 µM
